# assay-protocol: Lipophilicity determination by RP-HPLC (capacity factor k / log k)
# Type: physicochemical
# measurement-parameters: C18 column, MeOH 70% / H2O 30%, isocratic
Sorting guide: entries reporting log k beneath 0.7 go in the True pile, the rest go in the False pile.

Problem: Bench note: check whether `C[C@H](NC(=O)c1cc(Cl)ccc1O)C(=O)Nc1ccc(Cl)c(Cl)c1` shows log k below 0.7
Result: True

Problem: Bench note: check whether `CC(C)[C@H](NC(=O)c1ccc(Cl)cc1O)C(=O)Nc1ccc(C(F)(F)F)cc1` shows log k below 0.7
Result: False

Problem: Bench note: check whether `CC(C)[C@H](NC(=O)c1cc(Cl)ccc1O)C(=O)Nc1ccc(Cl)cc1` shows log k below 0.7
Result: True

Problem: Bench note: check whether `CC(C)[C@@H](NC(=O)c1ccc(Cl)cc1O)C(=O)Nc1ccc(Br)cc1` shows log k below 0.7
Result: False

Problem: Bench note: check whether `O=C(CNC(=O)c1cc(Cl)ccc1O)Nc1ccc(Cl)c(Cl)c1` shows log k below 0.7
Result: True

Problem: Bench note: check whether `C[C@@H](NC(=O)c1cc(Cl)ccc1O)C(=O)Nc1ccc(Cl)cc1` shows log k below 0.7
Result: True

Problem: Bench note: check whether `O=C(N[C@@H](Cc1ccccc1)C(=O)Nc1ccc(Cl)cc1)c1cc(Cl)ccc1O` shows log k below 0.7
Result: False

Problem: Bench note: check whether `CC(C)[C@H](NC(=O)c1cc(Cl)ccc1O)C(=O)Nc1ccc(Cl)c(Cl)c1` shows log k below 0.7
Result: False

Continuing:
Problem: Bench note: check whether `COc1ccc(NC(=O)[C@@H](NC(=O)c2ccc(Cl)cc2O)C(C)C)cc1` shows log k below 0.7
Result: True

Problem: Bench note: check whether `O=C(N[C@H](Cc1ccccc1)C(=O)Nc1ccc(Cl)c(Cl)c1)c1cc(Cl)ccc1O` shows log k below 0.7
Result: False

Problem: Bench note: check whether `CC(C)[C@@H](NC(=O)c1cc(Cl)ccc1O)C(=O)Nc1ccc(Cl)c(Cl)c1` shows log k below 0.7
Result: False

Problem: Bench note: check whether `O=C(CNC(=O)c1cc(Cl)ccc1O)Nc1cccc(Cl)c1` shows log k below 0.7
Result: True

Problem: Bench note: check whether `C[C@H](NC(=O)c1ccc(Cl)cc1O)C(=O)Nc1ccc(Cl)cc1` shows log k below 0.7
Result: True
